Where do the numbers come from? From DBAASP.

Tested on: Escherichia coli CCARM 1229
experimentalReadout: MIC

* CC[C@H](C)[C@H](NC(=O)[C@H](CCCCN)NC(=O)[C@H](Cc1c[nH]c2ccccc12)NC(=O)[C@@H](N)CCCN=C(N)N)C(=O)N[C@@H](Cc1ccccc1)C(=O)N[C@@H](CCCCN)C(=O)N[C@@H](CCCCN)C(=O)N[C@H](C(=O)N[C@H](C(=O)N[C@@H](CCCCN)C(=O)N[C@@H](CCCCN)C(=O)N[C@@H](Cc1c[nH]c2ccccc12)C(N)=O)C(C)C)C(C)C | 8 µM

---

# log10 of MIC per entry
System: Staphylococcus aureus ATCC 43300
experimentalReadout: log10 of MIC (log10 of the value in µM)

* CC[C@H](C)[C@H](NC(=O)[C@H](CC(C)C)NC(=O)[C@H](CCCCN)NC(=O)[C@H](CC(C)C)NC(=O)[C@H](CC(C)C)NC(=O)[C@H](CCCCN)NC(=O)[C@H](CCCN=C(N)N)NC(=O)[C@H](Cc1ccccc1)NC(=O)[C@H](CC(C)C)NC(=O)[C@H](CCCCN)NC(=O)[C@H](CCCN=C(N)N)NC(=O)[C@H](CC(C)C)NC(=O)[C@@H](N)CCCCN)C(=O)N[C@@H](CCCN=C(N)N)C(=O)N[C@@H](CCCCN)C(=O)N[C@@H](CC(C)C)C(=O)N[C@@H](CC(C)C)C(=O)N[C@@H](CCCN=C(N)N)C(=O)O | 1.20
* CC(C)[C@H](NC(=O)[C@H](CCCCN)NC(=O)[C@H](Cc1c[nH]c2ccccc12)NC(=O)[C@H](CCCN=C(N)N)NC(=O)CNC(=O)[C@H](CCC(N)=O)NC(=O)[C@@H](NC(=O)[C@@H](N)CCCN=C(N)N)C(C)C)C(=O)N[C@@H](CCCN=C(N)N)C(=O)N[C@@H](C)C(=O)N[C@@H](CO)C(=O)N[C@@H](Cc1ccccc1)C(=O)N[C@@H](Cc1ccccc1)C(=O)N[C@@H](CCCCN)C(=O)O | 1.56
* CC[C@H](C)[C@H](NC(=O)[C@H](CCCN=C(N)N)NC(=O)[C@H](C)NC(=O)[C@H](C)N)C(=O)N[C@H](C(=O)N[C@@H](CC(C)C)C(=O)N[C@@H](CCCN=C(N)N)C(=O)NCC(=O)N[C@@H](CCCN=C(N)N)C(=O)N[C@@H](Cc1ccccc1)C(=O)N[C@@H](CCCN=C(N)N)C(N)=O)[C@@H](C)CC | 0.90
* NC(=O)[C@H](CCCN=C(N)N)NC(=O)[C@H](Cc1ccccc1)NC(=O)[C@H](Cc1ccccc1)NC(=O)[C@H](CCCN=C(N)N)NC(=O)[C@H](CCCN=C(N)N)NC(=O)[C@H](Cc1ccccc1)NC(=O)[C@H](CCCN=C(N)N)NC(=O)[C@H](CCCN=C(N)N)NC(=O)[C@H](Cc1ccccc1)NC(=O)[C@H](Cc1ccccc1)NC(=O)[C@@H](N)CCCN=C(N)N | 0.60
* CC[C@H](C)[C@H](N)C(=O)N[C@@H](Cc1cnc[nH]1)C(=O)N[C@@H](CCCCN)C(=O)N[C@@H](Cc1ccccc1)C(=O)N[C@@H](Cc1c[nH]c2ccccc12)C(=O)N[C@@H](CCCN=C(N)N)C(=O)N[C@@H](CCCN=C(N)N)C(=O)N[C@@H](Cc1c[nH]c2ccccc12)C(=O)N[C@@H](Cc1ccccc1)C(=O)N[C@@H](CCCCN)C(=O)N[C@@H](Cc1cnc[nH]1)C(=O)N[C@H](C(N)=O)[C@@H](C)CC | 1.20
* NCC(=O)N[C@@H](CCCN=C(N)N)C(=O)N[C@@H](Cc1c[nH]c2ccccc12)C(=O)N[C@@H](CCCN=C(N)N)C(=O)N[C@@H](Cc1c[nH]c2ccccc12)C(=O)N[C@@H](Cc1c[nH]c2ccccc12)C(=O)N[C@@H](Cc1c[nH]c2ccccc12)C(=O)N[C@@H](CCCN=C(N)N)C(=O)N[C@@H](Cc1c[nH]c2ccccc12)C(=O)N[C@@H](CCCN=C(N)N)C(=O)N[C@@H](Cc1c[nH]c2ccccc12)C(N)=O | 0.30
* CC[C@H](C)[C@H](NC(=O)CNC(=O)[C@H](C)NC(=O)[C@H](CC(C)C)NC(=O)[C@H](C)NC(=O)[C@H](C)NC(=O)[C@@H]1CCCN1C(=O)[C@H](CC(C)C)NC(=O)[C@@H](N)Cc1ccccc1)C(=O)NCC(=O)NCC(=O)N[C@H](C(=O)N[C@@H](CC(C)C)C(=O)NCC(=O)N[C@@H](CCCCN)C(=O)N[C@@H](CC(C)C)C(=O)N[C@@H](Cc1ccccc1)C(N)=O)[C@@H](C)CC | 0.80
* CC[C@H](C)[C@H](NC(=O)CN)C(=O)N[C@@H](CCSC)C(=O)N[C@@H](CO)C(=O)N[C@@H](CO)C(=O)N[C@@H](CC(C)C)C(=O)N[C@@H](CCSC)C(=O)N[C@@H](CCCCN)C(=O)N[C@@H](CCCCN)C(=O)N[C@@H](CC(C)C)C(=O)N[C@@H](C)C(=O)N[C@@H](C)C(=O)N[C@@H](Cc1cnc[nH]1)C(=O)N[C@H](C(=O)N[C@@H](CCCCN)C(=O)N[C@@H](CCCCN)C(N)=O)[C@@H](C)CC | 1.93
* CC[C@H](C)[C@H](NC(=O)CN)C(=O)N[C@@H](CC(C)C)C(=O)N[C@@H](CO)C(=O)N[C@@H](CO)C(=O)N[C@@H](Cc1c[nH]c2ccccc12)C(=O)N[C@@H](CC(C)C)C(=O)N[C@@H](CCCCN)C(=O)N[C@@H](CCCCN)C(=O)N[C@@H](CC(C)C)C(=O)N[C@@H](CCCCN)C(=O)N[C@@H](CCCCN)C(=O)N[C@H](C(=O)N[C@H](C(=O)N[C@@H](C)C(=O)N[C@@H](CCCCN)C(N)=O)[C@@H](C)CC)[C@@H](C)CC | 1.20
